- targetOfAssay: NADPH oxidase 5 (Homo sapiens)
- testDetails: NOX5-dependent H2O2 signal modulators, primary screen, NOX inhibitor project, cell-based, HEK293-NOX5, Amplex Red fluorescence (AID 1161)
- testSettings: HEK293-NOX5, ionomycin, 45 min, higher = more signal
experimentalReadout: z-score

Previously resolved entries follow.
>>> reportedmeasurement("CN1C(=O)C2C=CC(C(O)c3cccs3)N(N(c3ccccc3)c3ccccc3)C2C1=O (centres undefined)")
-1.25
>>> reportedmeasurement("O=C1O[C@H](c2ccccc2)[C@H](c2ccccc2)N2[C@H]1[C@@H](C(=O)N1CCN(c3ncccn3)CC1)[C@]1(C(=O)Nc3ccc(C#CC4(O)CCCCCC4)cc31)[C@H]2c1ccc(O)cc1")
1.22
>>> reportedmeasurement("Cc1cccc([C@H]2C[C@H]3C(Br)=C[C@@]2(CO)C(=O)[C@]32CO2)c1")
-0.0286
>>> reportedmeasurement("COCCOC(=O)N1C(=O)[C@@]2(c3cc(C#CCCO)ccc31)[C@H](c1ccc(O)cc1)N1[C@H](c3ccccc3)[C@H](c3ccccc3)OC(=O)[C@H]1[C@@H]2C(=O)NC[C@H](O)c1ccccc1")
-0.0839
>>> reportedmeasurement("CO[C@H]1O[C@H](CO)[C@@H](OC(=O)Nc2ccccc2)[C@@H]2OC(=O)[C@@H](Cc3ccccc3)C/C=C/C[C@H](Cc3ccccc3)C(=O)O[C@@H]12")
-1.3

Could you tell me which z-score is on file for O=C1N(Cc2ccccc2)c2ccccc2C[C@@]12N=C(c1ccc(OCCCO)cc1)O[C@H]2c1ccccc1 ? -1.67

What does the data say about its z-score? Entry: [N-]=[N+]=NCc1ccccc1[C@H]1OC(c2ccc(OCCCO)cc2)=N[C@@]1(Cc1ccccc1N=[N+]=[N-])C(N)=O -2.11

====

- testDetails: small-molecule microarray binders of probe aWnt5a, primary screen, biochemical, biotinylated probe, 635/667 nm fluorescence (AID 1113);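 further: score merges 667 nm fluorescence intensity with signal-to-noise per printed feature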
- testSettings: higher = more signal
experimentalReadout: composite z-score

// lookup composite z-score for COc1ccc(CCNC(=O)[C@@H]2c3ccccc3C(=O)N(Cc3cc(F)cc(C(F)(F)F)c3)[C@H]2c2ccc(CO)cc2)cc1 0.0438

Query (compound): CN(C)CCCCCCNC(=O)[C@@H]1C[C@@H]2C(=O)N[C@@H](CCCC[N+](C)(C)C)C(=O)N2[C@@H]1c1cccc(OCCO)c1 ; field requested: composite z-score -0.0981

Could you tell me which composite z-score is on file for CCOC(=O)C=C1C[C@@H](c2cccc([N+](=O)[O-])c2)O[C@@H](c2cccc([N+](=O)[O-])c2)O1 ? 0.0289

// lookup composite z-score for COc1ccc([Si](C)(C)[C@H]2[C@H](CCO)O[C@@]3(C(=O)N(Cc4ccccc4)c4ccc(NC(=O)[C@H](C)O)cc43)[C@@H]2C)cc1 0.026

Need composite z-score of C=CCNC(=O)[C@H]1[C@@H]2C(=O)O[C@@H](c3ccccc3)[C@@H](c3ccccc3)N2[C@@H](c2ccc(OCCO)cc2)[C@]12C(=O)Nc1ccc(C#Cc3ccc(OC)cc3)cc12 , thanks. 0.104

Consider the compound COC(=O)C1=CC(CCCO)=CC(c2ccc(CN3CCCC3)cc2)N(C)C=C1C(=O)OC (configuration not stated) and give its measured composite z-score. 0.002

// returns reported composite z-score for input COCCOC(=O)N1C(=O)[C@@]2(c3cc(C#CCC(C(=O)OC)C(=O)OC)ccc31)[C@H](C(=O)N1CCc3cc(OC)c(OC)cc3C1)[C@H]1C(=O)O[C@H](c3ccccc3)[C@H](c3ccccc3)N1[C@@H]2c1ccccc1OCCO -0.0125

====

Each entry below carries its recorded z-score.
- testDetails: E. coli growth modulation, two-sided OD650, primary screen, E. coli filamentation project, strain DRC41, 24 h (AID 1093);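 further: MC1000 strain lacking acrAB efflux and sulA so SOS filamentation is blocked; test concentration not given here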
- testSettings: OD650, 24 h, higher = more signal, called active from +8 up or from −8 down
Hey, just send me the number, nothing else.

Completed entries (count: 5):
>>> reportedmeasurement("C=CCOC(=O)[C@H]1[C@@H]2C(=O)O[C@@H](c3ccccc3)[C@@H](c3ccccc3)N2[C@@H](c2ccc(OCCOC(=O)[C@@H]3C[C@@H]4C(=O)N[C@@H](Cc5ccccc5)C(=O)N4[C@@H]3c3ccc(O)cc3)cc2)[C@]12C(=O)Nc1ccc(I)cc12")
0.114
>>> reportedmeasurement("COCCOC(=O)N1C(=O)[C@@]2(c3ccccc31)[C@H](C(=O)Nc1nc3ccccc3s1)[C@H]1C(=O)O[C@H](c3ccccc3)[C@H](c3ccccc3)N1[C@@H]2c1ccccc1OCCO")
0.694
>>> reportedmeasurement("O=C(N1CCOCC1)[C@]1(CCS(=O)(=O)c2ccccc2)N=C(c2ccc(OCCCO)cc2)O[C@@H]1c1ccccc1")
1.14
>>> reportedmeasurement("COCCOC(=O)N1C(=O)[C@@]2(c3cc(C#CCCO)ccc31)[C@H](C(=O)N1CCN(c3ncccn3)CC1)[C@H]1C(=O)O[C@H](c3ccccc3)[C@H](c3ccccc3)N1[C@@H]2c1ccc(OCCO)cc1")
-0.466
>>> reportedmeasurement("COC(=O)[C@@]1(Cc2ccc(OC)cc2)[C@@H]2[C@@H](CC(=O)[C@H]2CC(=O)C(=O)N(C)C)CN1C(=O)c1ccccc1")
-0.163

Which measured z-score value corresponds to C=C[C@H](OC)[C@@H](O)c1ccc(OC)c(O)c1 ? -0.0822

====

- targetOfAssay: Albumin (Bos taurus)
- testDetails: bovine serum albumin binders on microarray, profiling panel, artefact control for SMM control protein annotation, biochemical, small-molecule microarray, Alexa647 label, 635/667 nm fluorescence (AID 1118);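 further: score merges 667 nm emission intensity and signal-to-noise per printed compound spot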
- testSettings: BSA-A647 binding, fluorescence 635 nm, higher = more signal
Assign condition met whenever composite z-score does not fall below 0.5; assign condition not met whenever it does.

Examples from the recorded data:
>>> label("CC(C)(C)OC(=O)N1[C@@H](C=C(Br)Br)COC1(C)C")
"condition not met"
>>> label("COCCOC(=O)N1C(=O)[C@@]2(c3cc(C#CCCO)ccc31)[C@H](C(=O)N1CCN(c3ncccn3)CC1)[C@H]1C(=O)O[C@H](c3ccccc3)[C@H](c3ccccc3)N1[C@@H]2c1ccc(OCCO)cc1")
"condition met"
>>> label("O=C(NC1CC1)[C@@H]1c2ccccc2C(=O)N(C2CCCCC2)[C@H]1c1ccc(CO)cc1")
"condition not met"

Can COC(=O)C1=CC(c2ccc(CO)cc2)=CC(C2CC2)N(Cc2cc3c(cc2Br)OCO3)C=C1C(=O)OC (centres undefined) be said to have composite z-score at or above 0.5? condition met

Check this molecule for composite z-score at or above 0.5: COC(=O)[C@@]1(Cc2ccc(OC)cc2)[C@@H]2[C@@H](CC(=O)[C@H]2CC(=O)C(=O)N(C)C)CN1C(=O)c1ccccc1 condition met

Say whether CC(C)C[C@@H]1NC(=O)[C@@H]2C[C@H](C(=O)NCCCCCNC(=O)CS)[C@H](c3ccc(O)cc3)N2C1=O shows composite z-score of 0.5 or more. condition not met

Determine whether measured composite z-score meets or exceeds 0.5 for COCCCNC(=O)[C@]1(Cc2ccccc2CN=[N+]=[N-])N=C(c2ccc(OCCCO)cc2)O[C@@H]1c1ccccc1N=[N+]=[N-] condition met

Please indicate if the recorded composite z-score for COC(=O)[C@@]1(Cc2ccccc2)[C@H]2c3cc(C(=O)N(C)C)n(CCF)c3C[C@H]2CN1C(=O)c1ccccc1 meets or exceeds 0.5. condition met

Exam item: decide whether the reported composite z-score for COC(=O)[C@@]1(Cc2ccc(F)cc2)[C@H]2c3cc(C(=O)N4CCCC4)n(Cc4ccc(OC(F)(F)F)cc4)c3C[C@H]2CN1C(=O)c1ccccc1 is at least 0.5. condition not met

Dear colleague, could you confirm whether COC(=O)[C@@]1(Cc2ccc(F)cc2)[C@H]2c3cc(C(=O)N(C)C)n(CCF)c3C[C@H]2CN1C(=O)c1ccccc1 has composite z-score at or above 0.5? condition met

composite z-score >= 0.5 for COCCOC(=O)N1C(=O)[C@@]2(c3cc(C#CCC(C(=O)OC)C(=O)OC)ccc31)[C@H](c1ccc(O)cc1)N1[C@H](c3ccccc3)[C@H](c3ccccc3)OC(=O)[C@H]1[C@@H]2C(=O)N1CCc2cc(OC)c(OC)cc2C1 ? condition not met

Is composite z-score at least 0.5? Consider C=CCN1C(=O)[C@@]2(O[C@@H](CCO)[C@H]([Si](C)(C)c3ccc(OC)cc3)[C@H]2C)c2cc(N3CCCCC3=O)ccc21 condition not met

Exam item: decide whether the reported composite z-score for COC(=O)C1(CC(C)C)C=C2C(=C(C)C(=O)C2C)CN1 (centres undefined) is at least 0.5. condition not met

Does CC(C)c1ccc(NN2C(C(O)c3ccccc3)C=CC3C(=O)N(c4ccccc4)C(=O)C32)cc1 (centres undefined) have a reported composite z-score of at least 0.5? condition met

Does composite z-score meet or surpass 0.5 for CCc1cccc(NC(=O)O[C@H]2[C@H](OC(=O)Nc3ccccc3-c3ccccc3)[C@H](OC(=O)Nc3ccccc3-c3ccccc3)[C@@H](OC)O[C@@H]2CO)c1 ? condition met

Test whether the molecule CN1C(=O)C2C=CC(C(O)COCc3ccccc3)N(Nc3ccc([N+](=O)[O-])cc3[N+](=O)[O-])C2C1=O (centres undefined) records composite z-score of 0.5 or higher. condition not met

Evaluate COC(=O)C(CC#Cc1ccc2c(c1)[C@]1(C(=O)N2)[C@H](C(=O)N2CCN(c3ncccn3)CC2)[C@H]2C(=O)O[C@H](c3ccccc3)[C@H](c3ccccc3)N2[C@@H]1c1ccc(O)cc1)C(=O)OC : composite z-score at minimum 0.5? condition not met

Test whether the molecule O=C1N(Cc2ccccc2)Cc2ccccc2C[C@@]12COC(c1ccc(OCCCO)cc1)=N2 records composite z-score of 0.5 or higher. condition not met
